B1: TCEB3B (parent)
chain: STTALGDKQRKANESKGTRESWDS

variants of: B1; assay: protein stability index of a GFP-peptide fusion (GPS, HEK-293T) (PSI 1-6); higher = more stable; conditions: c terminus: a fixed tail appended;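 note: lentivirally expressed fusions sorted by FACS into six bins by GFP to DsRed ratio, PSI derived from sequencing read proportions per bin multiplied by bin number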
The threshold is inclusive: protein stability index of exactly 4 counts as Satisfied; values below receive Not satisfied.

{"variant key": "R19L", "cat": "Satisfied"}
{"variant key": "K11R", "cat": "Not satisfied"}
{"variant key": "S1H", "cat": "Not satisfied"}
{"variant key": "S1P", "cat": "Not satisfied"}
{"variant key": "E14V", "cat": "Not satisfied"}
{"variant key": "R10T", "cat": "Satisfied"}
{"variant key": "D7V", "cat": "Not satisfied"}
{"variant key": "K8M", "cat": "Satisfied"}
{"variant key": "A12K", "cat": "Not satisfied"}
{"variant key": "K11C", "cat": "Satisfied"}
{"variant key": "T3N", "cat": "Not satisfied"}
{"variant key": "D23C", "cat": "Not satisfied"}
{"variant key": "D23K", "cat": "Not satisfied"}
{"variant key": "R19T", "cat": "Satisfied"}
{"variant key": "E20V", "cat": "Satisfied"}
{"variant key": "S21D", "cat": "Satisfied"}
{"variant key": "R19S", "cat": "Satisfied"}
{"variant key": "R19Q", "cat": "Satisfied"}
{"variant key": "R10I", "cat": "Not satisfied"}
{"variant key": "T2N", "cat": "Satisfied"}
{"variant key": "T3H", "cat": "Satisfied"}
{"variant key": "D23Q", "cat": "Not satisfied"}
{"variant key": "K11A", "cat": "Satisfied"}
{"variant key": "A12Y", "cat": "Not satisfied"}
{"variant key": "S1L", "cat": "Not satisfied"}
{"variant key": "D23T", "cat": "Not satisfied"}
{"variant key": "G6P", "cat": "Satisfied"}
{"variant key": "G6W", "cat": "Not satisfied"}
{"variant key": "G6Y", "cat": "Not satisfied"}
{"variant key": "T18F", "cat": "Not satisfied"}
{"variant key": "G17A", "cat": "Not satisfied"}
{"variant key": "T3K", "cat": "Not satisfied"}
{"variant key": "K16V", "cat": "Satisfied"}
{"variant key": "T2G", "cat": "Not satisfied"}
{"variant key": "S21E", "cat": "Satisfied"}
{"variant key": "T3C", "cat": "Not satisfied"}
{"variant key": "T2I", "cat": "Not satisfied"}
{"variant key": "L5D", "cat": "Satisfied"}
{"variant key": "A12G", "cat": "Satisfied"}
{"variant key": "W22Q", "cat": "Satisfied"}
{"variant key": "A4E", "cat": "Satisfied"}
{"variant key": "R10K", "cat": "Satisfied"}
{"variant key": "D23M", "cat": "Not satisfied"}
{"variant key": "R19W", "cat": "Satisfied"}
{"variant key": "K11D", "cat": "Satisfied"}
{"variant key": "A4Y", "cat": "Not satisfied"}
{"variant key": "S24D", "cat": "Satisfied"}
{"variant key": "D23R", "cat": "Not satisfied"}
{"variant key": "S24G", "cat": "Satisfied"}
{"variant key": "T18H", "cat": "Not satisfied"}
{"variant key": "S21R", "cat": "Satisfied"}
{"variant key": "T18G", "cat": "Not satisfied"}
{"variant key": "Q9N", "cat": "Not satisfied"}
{"variant key": "G17D", "cat": "Satisfied"}
{"variant key": "L5A", "cat": "Satisfied"}
{"variant key": "G17V", "cat": "Not satisfied"}
{"variant key": "W22L", "cat": "Satisfied"}
{"variant key": "D23N", "cat": "Satisfied"}
{"variant key": "R10C", "cat": "Not satisfied"}
{"variant key": "T3L", "cat": "Not satisfied"}
{"variant key": "T18Y", "cat": "Not satisfied"}
